tested_target: T1, Canine IL-31RA ECD-10His (canine, biotin-labeled in the Octet assay (site not stated))
T1 construct: The ELISA and Octet protocols say only 'IL-31RA' or 'canine IL-31RA'; also called cIL-31RA; canine IL-31 receptor alpha extracellular domain, HIS-tagged
T1 chain: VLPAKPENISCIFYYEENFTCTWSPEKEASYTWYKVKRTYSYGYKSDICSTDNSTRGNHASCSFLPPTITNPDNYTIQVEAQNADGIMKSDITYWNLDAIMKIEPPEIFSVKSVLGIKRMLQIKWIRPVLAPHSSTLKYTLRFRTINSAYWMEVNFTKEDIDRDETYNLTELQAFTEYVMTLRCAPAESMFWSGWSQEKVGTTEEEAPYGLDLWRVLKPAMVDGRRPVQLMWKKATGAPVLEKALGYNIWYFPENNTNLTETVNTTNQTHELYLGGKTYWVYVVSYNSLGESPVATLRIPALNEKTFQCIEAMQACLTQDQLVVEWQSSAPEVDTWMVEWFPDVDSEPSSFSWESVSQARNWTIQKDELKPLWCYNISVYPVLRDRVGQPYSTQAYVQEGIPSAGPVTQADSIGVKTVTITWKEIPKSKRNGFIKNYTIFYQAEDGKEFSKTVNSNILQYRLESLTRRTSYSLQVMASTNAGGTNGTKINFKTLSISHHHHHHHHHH
test_summary: BLI (Octet HTX), biotin-labeled canine IL-31RA on SA biosensors, 1:1 fit
Please use satisfied for Kd under 0.2 nM and not satisfied for everything else, ties included.

{"binder": "55B3 (antibody, V domains shown, Mouse monoclonal antibody from a hybridoma; also called mouse mAb 55B3) VH: EVQLQQSGPELVKPGASVKIPCKASGYTFTDYNMDWVKQSHGKSLEWIGHINPNTGGTIYNQKFKGKATLTVDKSSSTAYMDLRSLTSEDTAVYYCARWAQLLRQPYWYFDVWGTGTTVTVSS VL: DIKMTQSPSSMYASLGERVTITCKASQDINSYFNWVQQKPGKSPKTLIFRANRLVDGVPSRFSGSGSGQDYSLTINSLEYEDMGIYYCLQYDEFPLTFGAGTKLELK", "class": "not satisfied"}
{"binder": "209G5 (antibody, V domains shown, Mouse monoclonal antibody from a hybridoma; also called mouse mAb 209G5) VH: EVQLQQSVAELVRPGASVKLSCTASGFNIKNTYMHWVKERPEQGLEWIGRIDPANGNSKYAPKFQGKATITTDTSSNTAYLQLSSLTSEDTAIYYCARYYYVSSHFDVWGTGTTVTVSS VL: SIVMTQTPKFLLVSAGDRVTITCKASQSVTNDVTWYQQKPGQSPKLLIYYASNRYTGVPDRFTGSGYGTDFTFTISTVQAEDLAVYFCQQDYSSPFTFGSGTKLEIK", "class": "satisfied"}
{"binder": "100H8 (antibody, V domains shown, Mouse monoclonal antibody from a hybridoma; also called mouse mAb 100H8) VH: EVQLQQSGPELVKPGASVKIPCKASGYTFTDYNMDWVKQSHGKSLEWIGHINPNNGGILYNQKFKGKATLTVDRSSNTAYMELRSLTSEDTAVYFCARWAPLVRQPYWYFDVWGTGTTVTVSS VL: DIKMTQSPSSIFASLGERVTITCKASQDINSYLNWFQQKPGKSPKTLIYRADRLVDGVPSRFSGSGSGQDYSLTISSLEYEDMGIYYCLQYDEFPLTFGAGTKLELN", "class": "satisfied"}
{"binder": "224G3 (antibody, V domains shown, Mouse monoclonal antibody from a hybridoma; also called mouse mAb 224G3) VH: EVQLVESGGDLVKPGGSLKLSCAASGFTFSSYGMSWVRQTPDKRLEWVATISNGGSYTYYPDSVKGRFTISRDNAKNTLYMQMSSLKSEDTAMYYCARNEPPDYWGQGTSVTVSS VL: QIVLTQSPAIMSASLGERVTMTCTASSSVGSSYLHWYQQKPGSSPKLWIYDTSNLASGVPVRFSGSGSGTSYSLTISSMEAEDAATYYCHQYHRSPYTFGGGTKLEIK", "class": "satisfied"}
{"binder": "51F8 (antibody, V domains shown, Mouse monoclonal antibody from a hybridoma; also called mouse mAb 51F8) VH: EVQLQQSVAELVRPGASVKLSCTASGFNIKNTFIHWVKQRPEQGLEWIGRIDPANGNTKYAPKFQGRATLTADTSSNTAYLQLSSLTSEDTAIYYCARYYYVSSYFDVWGTGTTVTVSS VL: SIVMTQTPKFLLVSAGDRVTITCKASQSVTNDVTWYQQKPGQSPKLLIFSASNRYTGVPDRFTGSGYGTDFTFTISTVQAEDLAVYFCQQDYSSPWTFGGGTKLEIK", "class": "not satisfied"}

For this binder, is Kd lower than 0.2 nM? 85C10 (antibody, V domains shown, Mouse monoclonal antibody from a hybridoma; also called mouse mAb 85C10) VH: EFQLQQSGPELVKPGASVKISCKASGYSFTDYSINWVKQSNGKSLEWIGVINPNYGTSSHNQKFKGKATMTVDQSSSTAYMQLNSLTSEDSAVYYCARALDDYYFYWYFDVWGIGTTVTVSS VL: DVVMTQTPLSLPVSLGDQASISCRSSQSLVHTNGNTYLHWYLQKPGQSPKLLIYKVSNRFSGVPDRFSGSGSGTDFTLKISRVEAEDLGVYFCSQTTHVPLTFGAGTKLELK
not satisfied

Bench note: check whether 65G9 (antibody, V domains shown, Mouse monoclonal antibody from a hybridoma; also called mouse mAb 65G9) VH: EFQLQQSGPELVKPGASVKISCKASGYSFTDYGMNWLKQINGKSLEWIAIINPNYGTASSNPKFKDKATLTVDHSSSTAYMQLSSLTSEDSAVYYCARAFDGYYFYWYFDVWGTGTTVTVSS VL: DVVMTQTPLSLPVSLGDQASISCRSSQSLIHTNGNTYLHWYLQKPGQSPKLLIYKVSNRFSGVPDRFSGSGSGTDFTLKISRLEAEDLGVYFCSQSTHVPLTFGAGTKLELR shows Kd below 0.2 nM
not satisfied

Here's an entry: 218D9 (antibody, V domains shown, Mouse monoclonal antibody from a hybridoma; also called mouse mAb 218D9) VH: QVTLKESGPGILQPSQTLSLTCSFSGFSLSTFGRGVGWIRQPSGKGLDWLTHIWWDDDKYYNPALKSRLTISKDTSKNQVFLKIANVDTADTATYYCARIAGGLRRAPYAMDSWGQGTSVTVSS VL: DIQMTQSPASLSVSVGETVTITCRASENIYSSLAWYQQKQGKSPQLLVYAATNLADGVPSRFSGSGSGTQYSLKINSLQSEDSGNYYCQHFRDTPPTFGGGTKLEIK . Is its Kd below 0.2 nM?
satisfied

Consider the binder 222E7 (antibody, V domains shown, Mouse monoclonal antibody from a hybridoma; also called mouse mAb 222E7) VH: EVQLQQSGPELVKPGSSVKIPCKASGYTFTDYNMDWVKQSHGKSLEWIGHINPNIGGTLYNQKFKGKATLSVDKSSSTAYMELRSLTSEDTAVYYCARWAQLQRQPYWYFDVWGPGTTVTVSS VL: DIKMTQSPSSMYASLGERVTITCKASQDINSYLNWFQQKPGKSPKTLIYRVNRLVDGVPSRFSGSGSGQDYSLTISSLEYEDMGIYYCLQYDEFPLTFGAGTKLELK . Is its Kd strictly less than 0.2 nM?
satisfied
